Field: EC50. Provide a value for each of the molecules that follow.
# System: RSV strain A2
# test-name: RSV HEp-2 EC50 (infectious cytopathic cell protection assay)
# Assay type: cell-based
# test-conditions: human respiratory syncytial virus, HEp-2, 96 h, HEp-2 cells, RSV A2, 4 days; read-out: RSV HEp-2 EC50
One number for each entry, in µM.

The following molecules have reported results that may help.
| molecule | observed-property | units-text | experimental-value |
| --- | --- | --- | --- |
| C[C@H](NP(=O)(OC[C@@]1(C#N)O[C@@H](c2ccc3c(N)ncnn23)[C@H](O)[C@@H]1O)Oc1ccccc1)C(=O)OC1CCCCCCC1 (some centres unmarked) | EC50 | µM | 0.22 |
| CC(C)OC(=O)[C@H](C)NP(=O)(OC[C@@]1(C#N)O[C@@H](c2ccc3c(N)ncnn23)[C@H](O)[C@@H]1O)Oc1ccc(C(=O)N(C)C)cc1 (some centres unmarked) | EC50 | µM | 55.3 |
| CC[C@H](NP(=O)(OC[C@@]1(C#N)O[C@@H](c2ccc3c(N)ncnn23)[C@H](O)[C@@H]1O)Oc1ccccc1)C(=O)OC1CCCC1 (some centres unmarked) | EC50 | µM | 1.07 |
| C[C@H](NP(=O)(OC[C@@]1(C#N)O[C@@H](c2ccc3c(N)ncnn23)[C@H](O)[C@@H]1O)Oc1ccccc1)C(=O)OCC(C)(C)C(F)(F)F (single isomer, unassigned) [Example 261] | EC50 | µM | 0.034 |

Shift focus to the following entry.
Task: Would you mind telling me what EC50 value was observed for CC(NP(=O)(OC[C@@]1(C#N)O[C@@H](c2ccc3c(N)ncnn23)[C@H](O)[C@@H]1O)Oc1ccccc1)C(=O)O[C@H]1CCNC1=O (mixture of isomers) ?
Output: 7.14

----------
# Tested on: HRV1a
# test-name: HRV1A HELA EC50 (cytopathic effect in H1-HeLa cells)
# Type: cell-based
# test-conditions: 96 h, read-out: HRV1A HELA EC50
Field: EC50. Provide a value for each of the compounds that follow.
One number for each entry, in nM.

The following compounds have reported results that may help.
| compound | units-text | EC50 |
| --- | --- | --- |
| C[C@H](NP(=O)(OC[C@@]1(C#N)O[C@@H](c2ccc3c(N)ncnn23)[C@H](O)[C@@H]1O)Oc1ccccc1)C(=O)OCC1CC1 (mixture of isomers) [Example 8] | nM | 211 |
| CCC(CC)COC(=O)[C@H](CC)NP(=O)(OC[C@@]1(C#N)O[C@@H](c2ccc3c(N)ncnn23)[C@H](O)[C@@H]1O)Oc1ccccc1 (mixture of isomers) [Example 88] | nM | 581 |

Shift focus to the following entry.
Task: Would you mind telling me what EC50 value was observed for CC[C@H](NP(=O)(OC[C@@]1(C#N)O[C@@H](c2ccc3c(N)ncnn23)[C@H](O)[C@@H]1O)Oc1ccccc1)C(=O)OC1CCCCC1 (mixture of isomers) [Example 103] ?
Output: 1020

----------
# Test system: HRV16
# test-name: HRV16 HELA EC50 (cytopathic effect in H1-HeLa cells)
# Type: cell-based
# test-conditions: 96 h, H1-HeLa cells, 33° C., read-out: HRV16 HELA EC50
Field: pEC50. Provide a value for each of the compounds that follow.
One number for each entry, as −log10 of the molar value.

The following compounds have reported results that may help.
| compound | pEC50 |
| --- | --- |
| C[C@H](NP(=O)(OC[C@@]1(C#N)O[C@@H](c2ccc3c(N)ncnn23)[C@H](O)[C@@H]1O)Oc1ccccc1)C(=O)OC1CCCC1 (stereo partly drawn) | 6.54 |
| CC(C)OC(=O)[C@H](C)NP(=O)(OC[C@@]1(C#N)O[C@@H](c2ccc3c(N)ncnn23)[C@H](O)[C@@H]1O)Oc1ccccc1 (mixture of isomers) | 5.85 |
| CCOC(=O)[C@H](CC)NP(=O)(OC[C@@]1(C#N)O[C@@H](c2ccc3c(N)ncnn23)[C@H](O)[C@@H]1O)Oc1ccccc1 (stereo partly drawn) | 5.35 |
| COC1CCC(OC(=O)[C@H](C)NP(=O)(OC[C@@]2(C#N)O[C@@H](c3ccc4c(N)ncnn34)[C@H](O)[C@@H]2O)Oc2ccccc2)CC1 (stereo partly drawn) | 4.95 |

Shift focus to the following entry.
Task: Would you mind telling me what pEC50 value was observed for CC(C)OC(=O)[C@H](Cc1ccccc1)NP(=O)(OC[C@@]1(C#N)O[C@@H](c2ccc3c(N)ncnn23)[C@H](O)[C@@H]1O)Oc1ccccc1 (stereo partly drawn) ?
Output: 5.05

----------
# Test system: HRV14
# test-name: HRV14 HELA EC50 (cytopathic effect in H1-HeLa cells)
# Type: cell-based
# test-conditions: 96 h, read-out: HRV14 HELA EC50
observed-property: EC50 (nM)
Give bare numbers, in nM.

| compound | assayed-system | EC50 [nM] |
| --- | --- | --- |
| C[C@H](NP(=O)(OC[C@@]1(C#N)O[C@@H](c2ccc3c(N)ncnn23)[C@H](O)[C@@H]1O)Oc1ccccc1)C(=O)OCC1CC1 (mixture of isomers) | HRV14 | 615 |
| CCC(CC)COC(=O)[C@H](CC)NP(=O)(OC[C@@]1(C#N)O[C@@H](c2ccc3c(N)ncnn23)[C@H](O)[C@@H]1O)Oc1ccccc1 (mixture of isomers) | HRV14 | 1690 |

Kindly give each listed record's EC50.
1. CCC(CC)OC(=O)[C@H](C)NP(=O)(OC[C@@]1(C#N)O[C@@H](c2ccc3c(N)ncnn23)[C@H](O)[C@@H]1O)Oc1ccccc1 (stereo partly drawn)
2. CC(C)OC(=O)[C@H](C)NP(=O)(OC[C@@]1(C#N)O[C@@H](c2ccc3c(N)ncnn23)[C@H](O)[C@@H]1O)Oc1ccccc1 (mixture of isomers)
3. CC[C@H](NP(=O)(OC[C@@]1(C#N)O[C@@H](c2ccc3c(N)ncnn23)[C@H](O)[C@@H]1O)Oc1ccccc1)C(=O)OC1CCCCC1 (mixture of isomers)
4. C[C@H](NP(=O)(OC[C@@]1(C#N)O[C@@H](c2ccc3c(N)ncnn23)[C@H](O)[C@@H]1O)Oc1ccccc1)C(=O)OCC(C)(C)C (stereo partly drawn)
5. C[C@H](NP(=O)(OC[C@@]1(C#N)O[C@@H](c2ccc3c(N)ncnn23)[C@H](O)[C@@H]1O)Oc1ccccc1)C(=O)OC1CCCCC1 (stereo partly drawn)

Output:
1. 3430
2. 1810
3. 2550
4. 242
5. 445

Kindly give each listed record's EC50.
1. CCC(CC)COC(=O)[C@@H](C)NP(=O)(OC[C@@]1(C#N)O[C@@H](c2ccc3c(N)ncnn23)[C@H](O)[C@@H]1O)Oc1ccccc1 (stereo partly drawn)
2. C[C@H](NP(=O)(OC[C@@]1(C#N)O[C@@H](c2ccc3c(N)ncnn23)[C@H](O)[C@@H]1O)Oc1ccccc1)C(=O)OCC1CCC1 (mixture of isomers)

Output:
1: 9190; 2: 340

----------
# Tested on: RSV strain A2
# test-name: RSV HEp-2 EC50 (infectious cytopathic cell protection assay)
# Type: cell-based
# test-conditions: human respiratory syncytial virus, HEp-2, 96 h, HEp-2 cells, RSV A2, 4 days; read-out: RSV HEp-2 EC50
Field: EC50. Provide a value for each of the compounds that follow.
Numbers only, in nM.

| compound | observed-property | experimental-value |
| --- | --- | --- |
| C[C@H](NP(=O)(OC[C@@]1(C#N)O[C@@H](c2ccc3c(N)ncnn23)[C@H](O)[C@@H]1O)Oc1ccccc1)C(=O)OCC12CCN(CC1)CC2 (stereo partly drawn) | EC50 | 3840 |
| CC(C)C(=O)Nc1ncnn2c([C@@H]3O[C@](C#N)(CO[P@@](=O)(N[C@@H](C)C(=O)OC4CCCCC4)Oc4ccccc4)[C@@H](O)[C@H]3O)ccc12 | EC50 | 114 |

Shift focus to the following entry.
Task: Test system RSV strain A2; read-out EC50; what value for C[C@H](NP(=O)(OC[C@@]1(C#N)O[C@@H](c2ccc3c(N)ncnn23)[C@H](O)[C@@H]1O)Oc1ccccc1)C(=O)OCC1CCC1 (mixture of isomers) ?
Output: 56

----------
# Test system: HCV replicon 1B
# test-name: HCV Rep 1B EC50 (replicon luciferase)
# Type: cell-based
# test-conditions: Hepatitis C virus, 72 h, read-out: HCV Rep 1B EC50, replicon cells, 3 days
# Procedure: Compounds were serially diluted in ten steps of 1:3 dilutions in 384-well plates. All serial dilutions were performed in four replicates per compound within the same 384-well plate. […] The plate was incubated for 30 min at room temperature before the fluorescence signal (excitation 490 nm, emission 520 nm) was measured with a Perkin-Elmer Envision plate reader. […]
Define the label as t when EC50 is strictly less than 4 µM and as f in all remaining cases.

Illustrative cases are given below, each with its answer.
| compound | assayed-system | class |
| --- | --- | --- |
| C[C@H](N[P@](=O)(OC[C@@]1(C#N)O[C@@H](c2ccc3c(N)ncnn23)[C@H](O)[C@@H]1O)Oc1ccccc1)C(=O)O[C@H]1CC[C@H](C(F)(F)F)CC1 (single isomer, unassigned) | HCV replicon 1B | t |
| C[C@H](NP(=O)(OC[C@@]1(C#N)O[C@@H](c2ccc3c(N)ncnn23)[C@H](O)[C@@H]1O)Oc1ccccc1)C(=O)OCC(C)(C)C (some centres unmarked) | HCV replicon 1B | f |
| C[C@H](NP(=O)(OC[C@@]1(C#N)O[C@@H](c2ccc3c(N)ncnn23)[C@H](O)[C@@H]1O)Oc1ccccc1)C(=O)OC1CCCCC1 (some centres unmarked) | HCV replicon 1B | f |

Task: Determine if C[C@H](NP(=O)(OC[C@@]1(C#N)O[C@@H](c2ccc3c(N)ncnn23)[C@H](O)[C@@H]1O)Oc1ccccc1)C(=O)OCCC(C)(C)C (single isomer, unassigned) [Example 252] shows EC50 strictly lower than 4 µM.
Output: t
